- Tested on: monoclonal antibody prepared from hapten LIN-S2
- assay-name: Cross reaction (specificity) of the monoclonal antibody prepared from hapten LIN-S2
- Type: binding, mouse
- reported-conditions: antibody from hapten scheme LIN-S2; lincomycin = 100%
Would you kindly list Cross reaction for each of these molecules?

Some molecules with recorded Cross reaction:
>  <molecule>
CCC[C@@H]1C[C@@H](C(=O)N[C@@H]([C@H]2O[C@H](SC)[C@H](O)[C@@H](O)[C@H]2O)[C@@H](C)O)N(C)C1 [Lincomycin]

>  <Cross reaction>
100%

$$$$
>  <molecule>
CC[C@H]1OC(=O)C[C@@H](O)[C@H](C)[C@@H](O[C@@H]2O[C@H](C)[C@@H](O[C@H]3C[C@@](C)(O)[C@@H](O)[C@H](C)O3)[C@H](N(C)C)[C@H]2O)[C@@H](CC=O)C[C@@H](C)C(=O)/C=C/C(C)=C/[C@@H]1CO[C@@H]1O[C@H](C)[C@@H](O)[C@@H](OC)[C@H]1OC [Tylosin]

>  <Cross reaction>
<1%

$$$$
>  <molecule>
[H]/N=C(/N)N[C@H]1[C@H](O)[C@@H](O)[C@H](O[C@@H]2O[C@@H](C)[C@](O)(C=O)[C@H]2O[C@@H]2O[C@@H](CO)[C@H](O)[C@@H](O)[C@@H]2NC)[C@@H](N/C(N)=N\[H])[C@@H]1O [Streptomycin]

>  <Cross reaction>
9.2%

$$$$

Please look at the following molecule next.
Problem: Determine from records and report Cross reaction for CC[C@H]1OC(=O)[C@H](C)[C@@H](O[C@H]2C[C@@](C)(OC)[C@@H](O)[C@H](C)O2)[C@H](C)[C@@H](O[C@@H]2O[C@H](C)C[C@H](N(C)C)[C@H]2O)[C@](C)(O)C[C@@H](C)C(=O)[C@H](C)[C@@H](O)[C@]1(C)O [Erythromycin]
Solution: <1%
